Where these numbers come from: patent US20240336909

# tested on: AxCT mask27 EpCAM H90.2 L075 version 1
metric: Percent cleavage (%)
Response body: numeric value in %, unit text excluded.

Reported Percent cleavage for Neutrophil Elastase (protein) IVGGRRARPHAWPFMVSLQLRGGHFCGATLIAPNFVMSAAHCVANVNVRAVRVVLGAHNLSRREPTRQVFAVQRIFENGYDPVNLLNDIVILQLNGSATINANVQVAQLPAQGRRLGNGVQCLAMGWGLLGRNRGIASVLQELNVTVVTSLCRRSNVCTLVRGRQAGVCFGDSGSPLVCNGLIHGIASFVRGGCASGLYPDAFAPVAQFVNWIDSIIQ : what is it? 0

What do we get for MMP-7 (protein) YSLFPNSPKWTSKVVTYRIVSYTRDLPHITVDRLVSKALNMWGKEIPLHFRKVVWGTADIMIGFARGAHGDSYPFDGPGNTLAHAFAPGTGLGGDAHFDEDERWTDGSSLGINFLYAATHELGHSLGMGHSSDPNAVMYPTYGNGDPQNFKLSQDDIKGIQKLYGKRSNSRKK ? 0

What do we get for Matriptase (protein) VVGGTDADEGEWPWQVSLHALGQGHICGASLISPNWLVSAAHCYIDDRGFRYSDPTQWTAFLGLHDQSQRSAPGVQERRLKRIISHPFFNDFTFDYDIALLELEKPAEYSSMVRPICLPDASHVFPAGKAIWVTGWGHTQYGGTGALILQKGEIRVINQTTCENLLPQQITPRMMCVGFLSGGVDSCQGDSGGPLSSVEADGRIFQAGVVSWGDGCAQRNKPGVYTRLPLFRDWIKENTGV ? 0

What do we get for MMP-12 (protein) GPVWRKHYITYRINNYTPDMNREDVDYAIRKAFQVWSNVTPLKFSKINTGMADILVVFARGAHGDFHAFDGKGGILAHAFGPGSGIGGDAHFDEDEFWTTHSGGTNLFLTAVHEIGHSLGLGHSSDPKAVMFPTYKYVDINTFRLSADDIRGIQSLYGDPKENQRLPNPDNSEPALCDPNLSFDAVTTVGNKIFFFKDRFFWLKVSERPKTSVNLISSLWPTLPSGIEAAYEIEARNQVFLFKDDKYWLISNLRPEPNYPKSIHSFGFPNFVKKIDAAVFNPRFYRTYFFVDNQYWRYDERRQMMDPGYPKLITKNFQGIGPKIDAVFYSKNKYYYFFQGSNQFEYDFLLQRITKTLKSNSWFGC ? 0

What do we get for Cathepsin G (protein) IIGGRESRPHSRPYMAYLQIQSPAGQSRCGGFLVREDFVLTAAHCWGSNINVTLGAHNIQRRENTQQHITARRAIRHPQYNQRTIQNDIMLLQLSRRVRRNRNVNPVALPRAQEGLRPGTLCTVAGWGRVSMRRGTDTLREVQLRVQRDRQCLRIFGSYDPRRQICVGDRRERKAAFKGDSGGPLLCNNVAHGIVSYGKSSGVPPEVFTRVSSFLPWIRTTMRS ? 8

What do we get for MMP-1 (protein) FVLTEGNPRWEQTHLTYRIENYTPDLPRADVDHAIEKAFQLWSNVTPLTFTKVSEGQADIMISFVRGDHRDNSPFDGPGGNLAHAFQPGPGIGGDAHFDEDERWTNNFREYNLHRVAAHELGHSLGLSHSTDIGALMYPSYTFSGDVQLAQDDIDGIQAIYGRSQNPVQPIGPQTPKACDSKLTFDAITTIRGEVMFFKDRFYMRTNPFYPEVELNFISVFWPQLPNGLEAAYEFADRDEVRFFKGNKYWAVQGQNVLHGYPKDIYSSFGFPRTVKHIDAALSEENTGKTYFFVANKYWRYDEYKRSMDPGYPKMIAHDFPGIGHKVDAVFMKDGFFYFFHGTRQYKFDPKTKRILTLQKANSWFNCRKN ? 0
